Molecular target: T1, human wt-ERβ LBD (estrogen receptor beta ligand-binding domain, amino acids 261-502) (human, UniProt Q92731 261-502)
T1 construct: Cloned into pET-32a; N-terminal thioredoxine-hexahistidine tag removed with TEV protease; not shown: thioredoxin, N-terminal, cleaved; His6, N-terminal, cleaved
T1 sequence (Q92731 261-502): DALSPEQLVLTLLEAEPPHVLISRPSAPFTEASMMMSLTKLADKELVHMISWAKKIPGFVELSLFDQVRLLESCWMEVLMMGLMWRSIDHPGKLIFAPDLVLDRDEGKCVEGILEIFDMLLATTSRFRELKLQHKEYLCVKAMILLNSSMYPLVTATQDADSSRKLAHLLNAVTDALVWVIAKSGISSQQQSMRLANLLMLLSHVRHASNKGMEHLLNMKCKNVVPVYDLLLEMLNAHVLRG
Assay: fluorescence polarisation; fluorescence anisotropy; 4 nM fluorescein-SRC-1 NR2 peptide, LBD diluted 2-fold from 10 uM (ERα) or 20 uM (ERβ); with BBP at 20 uM (ERα) or 40 uM (ERβ); 20 mM Tris pH 8.0, 150 mM NaCl, 5 mM DTT, 10% glycerol
Conditions: both partners purified
Where no end group is shown, it is not given here. fluorescein = fluorescein label on the N-terminus of the peptide
Quantity kind: Kd (µM)

[[record]]
binder = "fluorescein-RHKILHRLLQEGS (also called SRC-1 NR2 peptide; fluorescein-labeled SRC-1 NR2 peptide; source: bought: EZbiolab) [fluorescein-RHKILHRLLQEGS peptide corresponding to the NR box 2-binding motif of SRC-1]"
recorded_value = 10.6

